- RUN_DESCRIPTION: LTEA_HepaRG_LDH_cytotoxicity: Cytotoxicity Assessment in the Life Technologies and Expression Analysis (LTEA) Assay (AID 2283563)
Activity calls are given as the source filed them. The calls were made as follows: active = hit-call score of the fitted dose curve at least 0.9, where 1 is the maximum; inconclusive = response in the unintended direction; inactive = score below 0.9.
Outcomes: 1 = active, 0 = inactive

# MOLECULE, QUALITATIVE_LABEL
data = [
    ("CC1=CC(=O)CC(C)(C)C1", 0),
    ("O=C1CCC(N2C(=O)c3ccccc3C2=O)C(=O)N1 (configuration not stated)", 0),
    ("O=P(OC(CCl)CCl)(OC(CCl)CCl)OC(CCl)CCl", 0),
    ("O=C(O)CCN(C1(C(=O)NO)CCCC1)S(=O)(=O)c1ccc(Oc2ccc(F)cc2)cc1", 0),
    ("C=CC(=C)CCC=C(C)C", 0),
    ("CNCc1ccc(NC(=O)c2c[nH]c3c2C(=O)CCC3)cc1", 0),
    ("CCOc1cccc(-n2cc(C(=O)N3CCN(c4cc(C(=O)O)c5ccccc5c4)CC3)nc2-c2ccc(C)cc2)c1", 1),
    ("Cc1ccc(O)cc1", 0),
    ("CC(C)(O)c1coc(S(=O)(=O)NC(=O)Nc2c3c(cc4c2CCC4)CCC3)c1", 0),
    ("O=C(OC[C@H]1O[C@@H](OC(=O)c2cc(O)c(O)c(OC(=O)c3cc(O)c(O)c(O)c3)c2)[C@H](OC(=O)c2cc(O)c(O)c(OC(=O)c3cc(O)c(O)c(O)c3)c2)[C@@H](OC(=O)c2cc(O)c(O)c(OC(=O)c3cc(O)c(O)c(O)c3)c2)[C@@H]1OC(=O)c1cc(O)c(O)c(OC(=O)c2cc(O)c(O)c(O)c2)c1)c1cc(O)c(O)c(OC(=O)c2cc(O)c(O)c(O)c2)c1", 0),
    ("NC(=O)NO", 0),
    ("O=C1CCCCCN1", 0),
]

====

- Read-out: C-C motif chemokine 2 (Homo sapiens) (UniProt P13500)
- RUN_DESCRIPTION: BSK_KF3CT_MCP1: BioMAP Diversity Plus: KF3CT Assay for Monocyte Chemoattractant Protein 1 (MCP1/CCL2) Biomarker Activity (AID 2283073)
- CONDITION_DESCRIPTION: primary human keratinocytes with fibroblasts; actives raise or lower the signal
The source made the active and inactive calls. The calls were made as follows: active = hit-call score of the fitted dose curve at least 0.9, where 1 is the maximum; inactive = score below 0.9.
Possible outcomes: label 1 = active, label 0 = inactive

# MOLECULE, QUALITATIVE_LABEL
rows = [
    ("Cc1ccc(N)cc1O", "label 0"),
    ("Cc1ccc(C)c(O)c1", "label 0"),
    ("O=C(O)CCN(C1(C(=O)NO)CCCC1)S(=O)(=O)c1ccc(Oc2ccc(F)cc2)cc1", "label 0"),
    ("CC(O)CN(CCN(CC(C)O)CC(C)O)CC(C)O (stereo not given)", "label 0"),
    ("CCOC(=O)c1ccc(C2CCC(NC[C@H](O)COc3ccc(O)c(NS(C)(=O)=O)c3)CC2)cc1 (stereo not given in full)", "label 0"),
    ("O=c1[nH]c2ccc(S(=O)CCN3CCC(Cc4ccc(F)cc4)CC3)cc2o1 (stereo not given)", "label 0"),
    ("C1N2CN3CN1CN(C2)C3", "label 0"),
    ("Nc1nc2ncc(CNc3ccc(C(=O)N[C@@H](CCC(=O)O)C(=O)O)cc3)nc2c(=O)[nH]1", "label 0"),
    ("O=C1CCC(N2C(=O)c3ccccc3C2=O)C(=O)N1 (stereo not given)", "label 0"),
    ("COCCOc1cc2cc(C(=O)NC3CCN(C(C)C)CC3)n(CC(=O)Nc3ccc(Cl)cn3)c2cn1", "label 0"),
    ("Cn1c(=O)cc(Oc2ccc(F)cc2F)c2cnc(NCC(C)(C)O)nc21", "label 0"),
    ("O=P(OC(CCl)CCl)(OC(CCl)CCl)OC(CCl)CCl", "label 0"),
    ("O=c1n(CC2CO2)c(=O)n(CC2CO2)c(=O)n1CC1CO1 (stereo not given)", "label 0"),
    ("Cc1ccc(S(=O)(=O)O)cc1C", "label 0"),
    ("Nc1ccc(Nc2ccccc2)cc1", "label 0"),
    ("CCCCCCCCO", "label 0"),
    ("O=C(CCCCCCCCc1cccnc1)N1CCC(C=C(c2ccccc2)c2ccccc2)CC1", "label 1"),
    ("C=CCCCCCCCCC(=O)O", "label 0"),
    ("COc1cccc(-c2ccc(/C=C\\CN3CCCCCC3)cc2Cl)c1", "label 1"),
    ("CCOCCOCCOCCO", "label 0"),
    ("CCn1nc(Cc2ccccc2)cc1C1CCN(C[C@H]2C[C@H](N(C)[C@@H](C(=O)O)C(C)C)C[C@@H]2c2cccc(F)c2)CC1", "label 0"),
    ("COc1ccc(/C=C/S(=O)(=O)NC(=O)c2ccc(C)cc2Cl)cc1", "label 0"),
    ("Cn1c(=O)c2c(ncn2C)n(C)c1=O", "label 0"),
    ("CC(C)c1cccc(C(C)C)c1N1C(=O)c2ccc(O)cc2C1=O", "label 0"),
    ("COC(=O)c1c(Cl)c(Cl)c(C(=O)OC)c(Cl)c1Cl", "label 0"),
]

====

- SYSTEM_UNDER_TEST: Nuclear receptor subfamily 4 group A member 2 (Homo sapiens) (UniProt P43354)
- Sequence (P43354 whole entry, looked up): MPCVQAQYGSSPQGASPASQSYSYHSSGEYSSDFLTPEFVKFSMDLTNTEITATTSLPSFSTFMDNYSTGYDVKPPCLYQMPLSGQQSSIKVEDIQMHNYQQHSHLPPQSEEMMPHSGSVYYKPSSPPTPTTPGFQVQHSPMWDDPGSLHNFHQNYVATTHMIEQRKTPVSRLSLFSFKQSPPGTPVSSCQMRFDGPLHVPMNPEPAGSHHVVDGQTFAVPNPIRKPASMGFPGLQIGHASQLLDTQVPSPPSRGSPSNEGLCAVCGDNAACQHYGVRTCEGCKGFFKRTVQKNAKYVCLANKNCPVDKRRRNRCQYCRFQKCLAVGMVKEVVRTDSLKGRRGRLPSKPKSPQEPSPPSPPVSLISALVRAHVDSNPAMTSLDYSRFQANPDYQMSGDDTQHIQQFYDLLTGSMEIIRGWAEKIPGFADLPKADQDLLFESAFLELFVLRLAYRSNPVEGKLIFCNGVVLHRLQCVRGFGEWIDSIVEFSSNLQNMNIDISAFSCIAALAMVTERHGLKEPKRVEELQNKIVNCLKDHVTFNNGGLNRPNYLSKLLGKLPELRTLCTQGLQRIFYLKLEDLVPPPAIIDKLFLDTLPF
- RUN_DESCRIPTION: ATG_NURR1_TRANS: Attagene TRANS-FACTORIAL HepG2 Assay for human Nuclear Receptor Related Protein 1 (NURR1) (AID 2282985)
- CONDITION_DESCRIPTION: HepG2 Attagene TRANS reporter, mRNA readout
- Description: ATG_TRANS is a cell-based, multiplexed-readout assay that uses HepG2, a human liver cell line, with measurements taken at 24 hours after chemical dosing in a 24-well plate.ATG_NURR1_TRANS is one of 30 assay component(s) measured or calculated from the ATG_TRANS assay. […] This assay endpoint, ATG_NURR1_TRANS, was analyzed in the positive analysis fitting direction relative to DMSO as the negative control and baseline of activity. […]
Inconclusive results are not listed. Activity calls are given as the source filed them. Rule for the calls: active = hit-call score of the fitted dose curve at least 0.9, where 1 is the maximum; inconclusive = response in the unintended direction; inactive = score below 0.9.
Labels: active, inactive

# COMPOUND, QUALITATIVE_LABEL
rows = [
    ("O=P(OC(CCl)CCl)(OC(CCl)CCl)OC(CCl)CCl", "active"),
    ("CCc1cc(SCc2sc(-c3ccc(C(F)(F)F)cc3)nc2CN2CCN(c3ccc(OC)cc3)CC2)ccc1OCC(=O)O", "inactive"),
    ("CCN(C(=O)c1cc(C)cc(OC[C@H](C)Nc2ccncc2)c1)C(C)C", "inactive"),
    ("Clc1nc(Cl)c(Cl)c(Cl)c1Cl", "inactive"),
    ("Cc1ccc(S(=O)(=O)O)cc1C", "inactive"),
    ("O=C(NS(=O)(=O)/C=C/c1ccccc1)c1ccc(F)cc1Cl", "inactive"),
    ("C1N2CN3CN1CN(C2)C3", "inactive"),
    ("COCCOCCOCCOC", "inactive"),
    ("CCCC(=O)OCC", "inactive"),
    ("CC(=O)OCCC(C)C", "inactive"),
    ("CC(C)(O)c1coc(S(=O)(=O)NC(=O)Nc2c3c(cc4c2CCC4)CCC3)c1", "inactive"),
    ("COc1cccc(-c2ccc(/C=C\\CN3CCCCCC3)cc2Cl)c1", "inactive"),
    ("C[C@](N)(Cc1ccc(O)c(O)c1)C(=O)O", "inactive"),
    ("CC(O)CN(CCN(CC(C)O)CC(C)O)CC(C)O (stereo not given)", "inactive"),
    ("CN(C)c1ccc(Cc2ccc(N(C)C)cc2)cc1", "active"),
    ("Fc1ccccc1[C@@H](F)COC1CCC(Nc2ncnc3[nH]ncc23)CC1 (stereo not given in full)", "inactive"),
    ("CCOC(=O)CC(CC(=O)OCC)(OC(C)=O)C(=O)OCC", "inactive"),
    ("Nc1cccc(N)c1", "inactive"),
    ("CC[C@H](C)C(=O)O[C@H]1C[C@@H](C)C=C2C=C[C@H](C)[C@H](CC[C@@H]3C[C@@H](O)CC(=O)O3)[C@H]21", "inactive"),
    ("O=C(CCCCCCCCc1cccnc1)N1CCC(C=C(c2ccccc2)c2ccccc2)CC1", "inactive"),
    ("CCOC(=O)COc1ccc2c(c1)CC(NCC(O)c1cccc(Cl)c1)CC2 (stereo not given)", "inactive"),
    ("COC(=O)c1ccccc1O", "inactive"),
    ("O=c1[nH]c2ccc(S(=O)CCN3CCC(Cc4ccc(F)cc4)CC3)cc2o1 (stereo not given)", "inactive"),
    ("COC(=O)c1c(Cl)c(Cl)c(C(=O)OC)c(Cl)c1Cl", "inactive"),
    ("Cc1[nH]cnc1C[C@H]1CCc2c(C)c3ccccc3n2C1=O", "inactive"),
    ("Nc1ccc(Nc2ccccc2)cc1", "inactive"),
    ("CC(C)=CCC/C(C)=C\\CO", "inactive"),
    ("COc1ccc2sc(C(=O)Nc3nnn[nH]3)c(OC(C)C)c2c1", "inactive"),
    ("CC(C)=CCCC(C)=CC=O", "active"),
    ("CCCCC(CC)COC(=O)CCCCCCCCC(=O)OCC(CC)CCCC (stereo not given)", "inactive"),
]
